- procedureDetails: Tmax in Sprague-Dawley rat at 40 mg/kg, ig measured up to 24 hrs by LC-MS/MS analysis
- Assay type: ADME, organism-based
- measurementConditions: in vivo, po
quantityName: Tmax (h)
Give the number; h is assumed, so skip it.

Endpoint output: Tmax of CNC(=O)C[C@@H]1C[C@@H](c2ccc(F)c(F)c2)[C@H](NC(=O)c2cc(-c3c(Cl)cnn3C)c(Cl)o2)CN1 . Value?
1.8

* * *

Endpoint: IC50. System: Ribosomal protein S6 kinase beta-1 (Homo sapiens, UniProt P23443). Items follow.
Sequence (P23443 whole entry): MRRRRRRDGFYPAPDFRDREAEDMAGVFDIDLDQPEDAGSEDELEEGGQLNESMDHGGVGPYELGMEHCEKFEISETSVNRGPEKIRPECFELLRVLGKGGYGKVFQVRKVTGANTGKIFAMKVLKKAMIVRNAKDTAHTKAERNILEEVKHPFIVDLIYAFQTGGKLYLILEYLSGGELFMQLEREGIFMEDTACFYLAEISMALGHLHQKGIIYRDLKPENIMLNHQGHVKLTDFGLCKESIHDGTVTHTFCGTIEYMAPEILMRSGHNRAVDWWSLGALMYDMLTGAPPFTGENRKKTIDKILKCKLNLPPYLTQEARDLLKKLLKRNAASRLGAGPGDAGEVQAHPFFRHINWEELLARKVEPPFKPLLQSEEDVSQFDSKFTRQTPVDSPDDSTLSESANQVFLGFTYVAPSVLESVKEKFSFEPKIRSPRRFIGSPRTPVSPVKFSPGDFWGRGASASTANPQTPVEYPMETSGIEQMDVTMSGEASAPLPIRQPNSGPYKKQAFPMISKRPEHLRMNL
Give the number; nM is assumed, so skip it.

Field: example entries. Status: answers known.
1) Cn1ncc(Cl)c1-c1cc(C(=O)N[C@@H]2CNCC[C@H]2c2ccc(F)c(F)c2)oc1Cl.O=C(O)C(O)C(O)C(=O)O : 7
2) Cn1ncc(Cl)c1-c1cc(C(=O)N[C@H](CN)Cc2ccc(F)c(F)c2)oc1Cl : 60

Query for Ribosomal protein S6 kinase beta-1 (Homo sapiens, UniProt P23443): what IC50 does the record show for CNC(=O)C[C@@H]1C[C@@H](c2ccc(F)c(F)c2)[C@H](NC(=O)c2cc(-c3c(Cl)cnn3C)c(Cl)o2)CN1 ?
8.9

# credit: ChEMBL document CHEMBL4406807
